I'd be grateful if you could share measured IC50 for these entries.
Test system: influenza virus A/ostrich/Denmark/725/96 (H5N2)
Test: microbe, parasite or virus in culture
Assay type: cell-based
Details: H5N2, MDCK, read-out: p[IC50] = −log[IC50] (converted)
Answers are plain numbers, in µM.

Below are 8 compounds. Give each one its IC50.
1. CC1(C)O[C@@H]2[C@H](O1)[C@@H](CO[C@@H]1C[C@@H](OCc3ccccc3)[C@H](OCc3ccccc3)[C@@H](COCc3ccccc3)O1)O[C@H]2n1ccc(=O)[nH]c1=O
2. O=c1ccn([C@@H]2O[C@H](CO[C@@H]3C[C@@H](O)[C@H](O)[C@@H](CO)O3)[C@@H](O)[C@H]2O)c(=O)[nH]1
3. CC1(C)O[C@@H]2[C@H](O1)[C@@H](CO[C@@H]1C[C@@H](OCc3ccccc3)[C@H](OCc3ccccc3)[C@@H](COCc3ccccc3)O1)O[C@H]2n1ccc(=O)n(C(=O)c2ccccc2)c1=O
4. CC1(C)O[C@@H]2[C@H](O1)[C@@H](CO[C@@H]1C[C@@H](OCc3ccccc3)[C@H](OCc3ccccc3)[C@@H](CO[Si](C)(C)C(C)(C)C)O1)O[C@H]2n1ccc(=O)[nH]c1=O
5. CC1(C)O[C@@H]2[C@H](O1)[C@@H](CO[C@@H]1C[C@@H](O)[C@H](O)[C@@H](CO)O1)O[C@H]2n1ccc(=O)[nH]c1=O
6. CC1(C)O[C@@H]2[C@H](O1)[C@@H](CO[C@@H]1C[C@@H](O)[C@H](O)[C@@H](CO)O1)O[C@H]2n1ccc(=O)n(Cc2ccccc2)c1=O
7. CC(=O)OC[C@H]1OC(OC[C@H]2O[C@@H](n3ccc(=O)[nH]c3=O)[C@@H]3OC(C)(C)O[C@@H]32)C[C@@H](OC(C)=O)[C@@H]1OC(C)=O (stereo partly drawn)
8. CC(=O)O[C@H]1[C@H](C)O[C@H](OC[C@H]2O[C@@H](n3ccc(=O)[nH]c3=O)[C@@H]3OC(C)(C)O[C@@H]32)C[C@@H]1O[Si](C)(C)C(C)(C)C

Reply |
1: 100; 2: 407; 3: 100; 4: 97.7; 5: 724; 6: 347; 7: 575; 8: 174

Ask | Consider the compound CC(=O)O[C@H]1[C@H](C)O[C@H](OC[C@H]2O[C@@H](n3ccc(=O)n(C(=O)c4ccccc4)c3=O)[C@@H]3OC(C)(C)O[C@@H]32)C[C@@H]1O[Si](C)(C)C(C)(C)C . State its measured IC50.
Reply | 81.3

====

Assay: in vitro
Conditions: dog
readout type: CC50 (µM)
Numbers only, in µM.

Below are 2 compounds. Give each one its CC50.
1. CC(=O)OC[C@H]1OC(OC[C@H]2O[C@@H](n3ccc(=O)[nH]c3=O)[C@@H]3OC(C)(C)O[C@@H]32)C[C@@H](OC(C)=O)[C@@H]1OC(C)=O (stereo partly shown) [Compound 6]
2. CC1(C)O[C@@H]2[C@H](O1)[C@@H](CO[C@@H]1C[C@@H](O)[C@H](O)[C@@H](CO)O1)O[C@H]2n1ccc(=O)n(Cc2ccccc2)c1=O [Compound 8]

Reply |
[620, 669]

====

Tested on: influenza virus A/ostrich/Denmark/725/96 (H5N2)
Experiment: microbe, parasite or virus in culture
Type: cell-based
Threshold 2. SI (selectivity index, ratio of CC50 to IC50) below it: class 1. SI (selectivity index, ratio of CC50 to IC50) at it or above: class 0.

{"molecule": "CC1(C)O[C@@H]2[C@H](O1)[C@@H](CO[C@@H]1C[C@@H](OCc3ccccc3)[C@H](OCc3ccccc3)[C@@H](CO[Si](C)(C)C(C)(C)C)O1)O[C@H]2n1ccc(=O)[nH]c1=O [Compound 5]", "category label": "class 1"}
{"molecule": "CC1(C)O[C@@H]2[C@H](O1)[C@@H](CO[C@@H]1C[C@@H](OCc3ccccc3)[C@H](OCc3ccccc3)[C@@H](COCc3ccccc3)O1)O[C@H]2n1ccc(=O)n(C(=O)c2ccccc2)c1=O [Compound 4]", "category label": "class 0"}
{"molecule": "CC(=O)O[C@H]1[C@H](C)O[C@H](OC[C@H]2O[C@@H](n3ccc(=O)n(C(=O)c4ccccc4)c3=O)[C@@H]3OC(C)(C)O[C@@H]32)C[C@@H]1O[Si](C)(C)C(C)(C)C [Compound 2]", "category label": "class 0"}
{"molecule": "CC1(C)O[C@@H]2[C@H](O1)[C@@H](CO[C@@H]1C[C@@H](O)[C@H](O)[C@@H](CO)O1)O[C@H]2n1ccc(=O)[nH]c1=O [Compound 7]", "category label": "class 1"}

Ask | Given the entry CC1(C)O[C@@H]2[C@H](O1)[C@@H](CO[C@@H]1C[C@@H](OCc3ccccc3)[C@H](OCc3ccccc3)[C@@H](COCc3ccccc3)O1)O[C@H]2n1ccc(=O)[nH]c1=O [Compound 3] , would its reported SI (selectivity index, ratio of CC50 to IC50) be below 2?
Reply | class 0

Ask | Given the entry CC(=O)OC[C@H]1OC(OC[C@H]2O[C@@H](n3ccc(=O)[nH]c3=O)[C@@H]3OC(C)(C)O[C@@H]32)C[C@@H](OC(C)=O)[C@@H]1OC(C)=O (some centres unmarked) [Compound 6] , would its reported SI (selectivity index, ratio of CC50 to IC50) be below 2?
Reply | class 1

Ask | Given the entry CC1(C)O[C@@H]2[C@H](O1)[C@@H](CO[C@@H]1C[C@@H](OCc3ccccc3)[C@H](OCc3ccccc3)[C@@H](CO[Si](C)(C)C(C)(C)C)O1)O[C@H]2n1ccc(=O)n(C(=O)c2ccccc2)c1=O [IW3, reference compound] , would its reported SI (selectivity index, ratio of CC50 to IC50) be below 2?
Reply | class 0

Ask | Given the entry CC1(C)O[C@@H]2[C@H](O1)[C@@H](CO[C@@H]1C[C@@H](O)[C@H](O)[C@@H](CO)O1)O[C@H]2n1ccc(=O)n(Cc2ccccc2)c1=O [Compound 8] , would its reported SI (selectivity index, ratio of CC50 to IC50) be below 2?
Reply | class 1

Ask | Given the entry CC(=O)O[C@H]1[C@H](C)O[C@H](OC[C@H]2O[C@@H](n3ccc(=O)[nH]c3=O)[C@@H]3OC(C)(C)O[C@@H]32)C[C@@H]1O[Si](C)(C)C(C)(C)C [Compound 1] , would its reported SI (selectivity index, ratio of CC50 to IC50) be below 2?
Reply | class 1

====

Assay: in vitro
Settings: dog
readout type: CC50 (µM)
One number for each entry, in µM.

{"molecule": "CC1(C)O[C@@H]2[C@H](O1)[C@@H](CO[C@@H]1C[C@@H](OCc3ccccc3)[C@H](OCc3ccccc3)[C@@H](COCc3ccccc3)O1)O[C@H]2n1ccc(=O)n(C(=O)c2ccccc2)c1=O", "readout type": "CC50", "measurement": 480}

Below are 3 molecules. Give each one its CC50.
1. CC1(C)O[C@@H]2[C@H](O1)[C@@H](CO[C@@H]1C[C@@H](OCc3ccccc3)[C@H](OCc3ccccc3)[C@@H](CO[Si](C)(C)C(C)(C)C)O1)O[C@H]2n1ccc(=O)[nH]c1=O
2. CC1(C)O[C@@H]2[C@H](O1)[C@@H](CO[C@@H]1C[C@@H](OCc3ccccc3)[C@H](OCc3ccccc3)[C@@H](CO[Si](C)(C)C(C)(C)C)O1)O[C@H]2n1ccc(=O)n(C(=O)c2ccccc2)c1=O [IW3, reference compound]
3. CC1(C)O[C@@H]2[C@H](O1)[C@@H](CO[C@@H]1C[C@@H](O)[C@H](O)[C@@H](CO)O1)O[C@H]2n1ccc(=O)[nH]c1=O

Reply |
1: 150; 2: 640; 3: 828

Ask | Consider the molecule CC(=O)O[C@H]1[C@H](C)O[C@H](OC[C@H]2O[C@@H](n3ccc(=O)n(C(=O)c4ccccc4)c3=O)[C@@H]3OC(C)(C)O[C@@H]32)C[C@@H]1O[Si](C)(C)C(C)(C)C . State its measured CC50.
Reply | 432
